Cited source for all entries: patent US9943519B2

Molecular target: human PI3K isoform beta (p110 beta) (Homo sapiens, UniProt P42338)
Sequence (P42338 whole entry, canonical isoform): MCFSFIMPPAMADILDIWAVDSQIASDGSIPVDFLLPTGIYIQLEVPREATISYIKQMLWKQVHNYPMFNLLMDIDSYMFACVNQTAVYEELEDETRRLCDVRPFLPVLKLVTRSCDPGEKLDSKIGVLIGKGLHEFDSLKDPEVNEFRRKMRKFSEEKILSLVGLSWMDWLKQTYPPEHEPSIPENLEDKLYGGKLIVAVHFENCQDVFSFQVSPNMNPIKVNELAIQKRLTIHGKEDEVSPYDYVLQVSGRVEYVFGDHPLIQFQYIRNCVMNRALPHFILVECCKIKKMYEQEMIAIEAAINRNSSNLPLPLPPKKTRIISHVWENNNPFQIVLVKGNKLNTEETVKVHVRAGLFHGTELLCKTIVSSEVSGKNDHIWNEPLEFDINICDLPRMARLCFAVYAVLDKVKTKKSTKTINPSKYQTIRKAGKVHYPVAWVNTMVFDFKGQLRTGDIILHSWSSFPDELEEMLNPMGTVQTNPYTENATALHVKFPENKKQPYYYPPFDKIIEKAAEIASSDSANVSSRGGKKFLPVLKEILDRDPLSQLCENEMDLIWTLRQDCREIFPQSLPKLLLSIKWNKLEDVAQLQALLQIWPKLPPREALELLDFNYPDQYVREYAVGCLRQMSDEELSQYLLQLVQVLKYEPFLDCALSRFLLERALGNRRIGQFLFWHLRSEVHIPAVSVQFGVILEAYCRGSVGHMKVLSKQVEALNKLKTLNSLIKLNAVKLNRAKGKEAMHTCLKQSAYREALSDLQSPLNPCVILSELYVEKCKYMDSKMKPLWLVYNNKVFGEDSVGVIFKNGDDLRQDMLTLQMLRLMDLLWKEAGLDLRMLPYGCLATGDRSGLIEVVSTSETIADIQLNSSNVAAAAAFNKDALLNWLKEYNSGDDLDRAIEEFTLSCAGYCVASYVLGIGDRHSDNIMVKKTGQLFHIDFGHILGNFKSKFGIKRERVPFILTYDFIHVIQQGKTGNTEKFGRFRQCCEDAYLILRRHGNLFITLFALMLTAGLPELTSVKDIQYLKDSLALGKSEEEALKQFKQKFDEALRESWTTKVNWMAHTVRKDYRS
Sequence (P27986 whole entry partner, canonical isoform): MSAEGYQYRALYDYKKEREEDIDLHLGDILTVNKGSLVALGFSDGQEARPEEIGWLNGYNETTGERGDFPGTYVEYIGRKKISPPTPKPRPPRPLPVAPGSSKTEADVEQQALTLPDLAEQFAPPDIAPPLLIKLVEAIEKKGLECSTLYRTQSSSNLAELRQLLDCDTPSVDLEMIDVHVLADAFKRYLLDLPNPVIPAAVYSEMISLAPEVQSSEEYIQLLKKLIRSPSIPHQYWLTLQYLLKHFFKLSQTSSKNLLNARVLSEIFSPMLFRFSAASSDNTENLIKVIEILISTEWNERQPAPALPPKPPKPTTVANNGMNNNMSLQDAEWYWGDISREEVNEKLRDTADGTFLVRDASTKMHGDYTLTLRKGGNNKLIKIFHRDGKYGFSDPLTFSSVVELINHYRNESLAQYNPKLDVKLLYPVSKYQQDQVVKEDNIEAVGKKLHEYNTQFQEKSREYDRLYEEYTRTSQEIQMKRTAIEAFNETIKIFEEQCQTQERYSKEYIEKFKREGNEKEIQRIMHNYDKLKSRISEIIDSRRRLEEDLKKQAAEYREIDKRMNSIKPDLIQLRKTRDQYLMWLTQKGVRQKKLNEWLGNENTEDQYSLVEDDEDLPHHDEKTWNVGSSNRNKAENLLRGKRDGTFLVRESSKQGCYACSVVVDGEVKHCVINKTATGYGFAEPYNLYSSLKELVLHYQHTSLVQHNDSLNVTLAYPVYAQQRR
Assay: p110 isoform selectivity scintillation proximity assay (beta)
Format: biochemical
Settings: ratio of IC50 values, SPA, purified human PI3K isoforms
measured attribute: alpha/beta (fold potency over beta relative to alpha)

For orientation, consider the following solved cases.
Look up alpha/beta (fold potency over beta relative to alpha) for this molecule: CS(=O)(=O)N1CCN(Cc2cc3nc(-c4cnc5[nH]ccc5c4)nc(N4CCOCC4)c3o2)CC1 [Compound 142] >10 fold

Which alpha/beta (fold potency over beta relative to alpha) value belongs to Cc1nc2ccccc2n1-c1nc(N2CCOCC2)c2cc(CN3CCN(S(C)(=O)=O)CC3)sc2n1 [Compound 16] ? >10 fold

Given the molecule CS(=O)(=O)N1CCN(Cc2cc3c(N4CCOCC4)nc(-c4cncc5ccccc45)nc3s2)CC1 [Compound 94] , what is its reported alpha/beta (fold potency over beta relative to alpha)? >10 fold

Sample CS(=O)(=O)N1CCN(Cc2cc3nc(-c4cnc5ccccc5c4)nc(N4CCOCC4)c3s2)CC1 [Compound 89] — what was its alpha/beta (fold potency over beta relative to alpha)? >10 fold

Entry CS(=O)(=O)N1CCN(Cc2cc3nc(-c4cccc5[nH]cnc45)nc(N4CCOCC4)c3s2)CC1 [Compound 139] has what alpha/beta (fold potency over beta relative to alpha)? <10 fold

Further cases:
Recorded alpha/beta (fold potency over beta relative to alpha) of Cc1nc2cc(-c3nc(N4CCOCC4)c4sc(CN5CCN(S(C)(=O)=O)CC5)cc4n3)ccc2[nH]1 [Compound 157] , please. >10 fold

Form field: reported alpha/beta (fold potency over beta relative to alpha) of CS(=O)(=O)N1CCN(Cc2cc3nc(-c4cnc5[nH]ccc5c4)nc(N4CCOCC4)c3s2)CC1 [Compound 133] >10 fold

I'd like to know its alpha/beta (fold potency over beta relative to alpha). The molecule in question is CC(=O)N1CCN(Cc2cc3nc(-c4cccc5[nH]ncc45)nc(N4CCOCC4)c3s2)CC1 [Compound 54] <10 fold

###

Biological target: human PI3K isoform delta (p110 delta) (Homo sapiens, UniProt O00329)
Sequence (O00329 whole entry, canonical isoform): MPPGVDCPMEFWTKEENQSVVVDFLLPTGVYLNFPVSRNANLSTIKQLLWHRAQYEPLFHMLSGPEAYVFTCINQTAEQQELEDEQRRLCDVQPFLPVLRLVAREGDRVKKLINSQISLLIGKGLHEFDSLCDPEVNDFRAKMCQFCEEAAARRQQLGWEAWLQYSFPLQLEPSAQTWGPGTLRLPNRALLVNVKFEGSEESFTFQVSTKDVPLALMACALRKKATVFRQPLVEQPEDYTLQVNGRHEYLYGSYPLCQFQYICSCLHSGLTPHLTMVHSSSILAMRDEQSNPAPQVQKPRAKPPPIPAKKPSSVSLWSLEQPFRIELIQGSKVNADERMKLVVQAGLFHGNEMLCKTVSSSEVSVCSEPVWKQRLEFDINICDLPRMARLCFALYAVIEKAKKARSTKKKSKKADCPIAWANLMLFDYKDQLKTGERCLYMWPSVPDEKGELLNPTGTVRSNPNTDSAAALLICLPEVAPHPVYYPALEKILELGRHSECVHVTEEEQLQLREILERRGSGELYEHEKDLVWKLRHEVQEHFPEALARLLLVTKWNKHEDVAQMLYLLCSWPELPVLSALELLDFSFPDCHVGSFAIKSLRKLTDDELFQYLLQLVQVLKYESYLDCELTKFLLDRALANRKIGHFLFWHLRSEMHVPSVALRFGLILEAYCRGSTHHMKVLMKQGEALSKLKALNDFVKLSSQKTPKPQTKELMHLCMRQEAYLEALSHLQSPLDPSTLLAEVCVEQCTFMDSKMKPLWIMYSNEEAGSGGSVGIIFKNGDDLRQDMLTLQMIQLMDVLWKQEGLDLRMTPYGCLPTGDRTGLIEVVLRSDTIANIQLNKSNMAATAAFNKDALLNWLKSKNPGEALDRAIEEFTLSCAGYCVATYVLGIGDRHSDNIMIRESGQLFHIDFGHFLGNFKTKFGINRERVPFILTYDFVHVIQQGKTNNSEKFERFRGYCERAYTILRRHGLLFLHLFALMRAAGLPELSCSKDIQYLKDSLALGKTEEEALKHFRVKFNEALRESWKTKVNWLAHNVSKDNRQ
Sequence (P27986 whole entry partner, canonical isoform): as the sequence (P27986 whole entry partner, canonical isoform) above
Experiment: p110 isoform selectivity scintillation proximity assay (delta)
Assay type: biochemical
Conditions: ratio of IC50 values, SPA, purified human PI3K isoforms
Method: Binding of compounds of the invention from above Tables 1a and 1b to purified preparations of p110 isoforms alpha, beta, delta, and gamma was measured by a Scintillation Proximity Assay (SPA) to determine binding activity (IC50 μMol) and selectivity of binding of beta, delta, and gamma isoforms relative to alpha (Example 8). These values are expressed in Table 2. […]
measured attribute: alpha/delta (fold potency over delta relative to alpha)

Illustrative cases are given below, each with its answer.
Short answer please: alpha/delta (fold potency over delta relative to alpha), human PI3K isoform delta (p110 delta) (Homo sapiens, UniProt O00329), entry CS(=O)(=O)N1CCN(Cc2cc3nc(-c4cncc5ccccc45)nc(N4CCOCC4)c3s2)CC1 <10 fold

Hi! What's the reported alpha/delta (fold potency over delta relative to alpha) for CS(=O)(=O)N1CCN(Cc2cc3c(N4CCOCC4)nc(-c4cnc5[nH]ccc5c4)nc3s2)CC1 on human PI3K isoform delta (p110 delta) (Homo sapiens, UniProt O00329)? >10 fold

Return alpha/delta (fold potency over delta relative to alpha) measured with human PI3K isoform delta (p110 delta) (Homo sapiens, UniProt O00329) given this compound: CS(=O)(=O)N1CCN(Cc2cc3nc(-c4cccc5[nH]ncc45)nc(N4CCOCC4)c3o2)CC1 <10 fold

Next:
Checklist item: alpha/delta (fold potency over delta relative to alpha) tested on human PI3K isoform delta (p110 delta) (Homo sapiens, UniProt O00329), entry Cc1c(CN2CCN(S(C)(=O)=O)CC2)sc2c(N3CCOCC3)nc(-c3cccc4[nH]ncc34)nc12 , value? <10 fold
